# experiment.notes: ATG_TGFb_CIS: Attagene CIS-FACTORIAL HepG2 Assay for human Transforming Growth Factor (TGF) (AID 2282967)
# condition.label: HepG2 Attagene CIS TGFb reporter, mRNA transcription; actives raise or lower the signal
Calls of active or inactive are those of the source. How the source made its calls: active means hit-call score of the fitted dose curve at least 0.9, where 1 is the maximum; inactive means score below 0.9.
observation.type: outcome

compound: CCCCCCCCCC
result: inactive
//
compound: CCCc1ccccc1
result: inactive
//
compound: OC(O)(C(F)C(O)(O)C(F)(F)F)C(F)(F)F
result: inactive
//
compound: CCCCC(CC)C(=O)OCCOCCOCCOC(=O)C(CC)CCCC (stereo not given)
result: inactive
//
compound: O=S(=O)(O)c1ccc(N=Nc2c(O)ccc3cc(S(=O)(=O)O)ccc23)cc1
result: inactive

Fill in the blank: the reported outcome of `OCCNCCO` is ____.
inactive

Fill in the blank: the reported outcome of `O=C(NO)C1(NS(=O)(=O)c2ccc(Oc3ccc(F)cc3)cc2)CCOCC1` is ____.
inactive

Fill in the blank: the reported outcome of `Cc1cccc(O)c1C` is ____.
inactive

Fill in the blank: the reported outcome of `Cn1c(=O)c2[nH]cnc2n(C)c1=O` is ____.
inactive
